Assign IC50 to each entry below.
Test system: HIV-1KNH1144 Env-pseudotyped virus
Test: Env-pseudotyped HIV-1 neutralization assay, KNH1144 Env
Type: cell-based
Conditions: Human immunodeficiency virus 1; CCR5 inhibitors and RT inhibitor; read-out: Env-pseudotyped neutralization (50% endpoint) KNH1144
Please answer using the number first and the unit second.

*Q* // returns reported IC50 for input COC[C@@H](c1ccc(C(F)(F)F)cc1)N1CCN(C2(C)CCN(C(=O)c3c(C)ncnc3C)CC2)C[C@@H]1C
*A* 0.01 nM

*Q* IC50 lookup needed for CCO/N=C(\c1ccc(Br)cc1)C1CCN(C2(C)CCN(C(=O)c3c(C)cc[n+]([O-])c3C)CC2)CC1 , thanks.
*A* 0.04 nM

Hey, just so you know, these numbers are from patent US20110076298A1.
